Origin of values: ChEMBL document CHEMBL4184139

System: SK-N-BE(2)-M17
Experiment: Cytotoxicity against human SK-N-BE(2)-M17 cells at 100 uM 24 hrs by MTT assay
Type: cell-based
Conditions: sk-n-be(2)-m17, 24 h
Property Label: Activity

[[record]]
compound = "CC(=O)N(O)CCCCCNC(=O)CCC(=O)N(O)CCCCCNC(=O)CCC(=O)N(O)CCCCCNC(=O)C12CC3CC(C)(CC(C)(C3)C1)C2"
property_label = "Activity"
measured_result = "Non-Toxic"

[[record]]
compound = "CCCCC[C@]12CC[C@@H](CC1)[C@@H](C(=O)NCCCCCN(O)C(=O)CCC(=O)NCCCCCN(O)C(=O)CCC(=O)NCCCCCN(O)C(C)=O)C2 (relative stereo)"
property_label = "Activity"
measured_result = "Non-Toxic"

[[record]]
compound = "CC(=O)N(O)CCCCCNC(=O)CCC(=O)N(O)CCCCCNC(=O)CCC(=O)N(O)CCCCCNC(=O)C1CC2CCCC(C2)C1 (stereo not drawn)"
property_label = "Activity"
measured_result = "Non-Toxic"


----------
Test system: SK-N-BE(2)-M17
Experiment: Cytoprotection against PQ-induced cell death in human SK-N-BE(2)-M17 cells assessed as increase in cell viability at 100 uM pretreated for 2 hrs followed by 1 mM PQ addition measured after 24 hrs by MTT assay
Format: functional, cell-based
Calls of active or inactive are those of the source. The calls are words filed in the database; no cut-off is given here.
Give one outcome, nothing more. List: active, inactive

[[record]]
molecule = "CC(=O)N(O)CCCCCNC(=O)CCC(=O)N(O)CCCCCNC(=O)CCC(=O)N(O)CCCCCNC(=O)C12CC3CC(C1)CC(c1ccc([N+](=O)[O-])cc1)(C3)C2"
answer_label = "active"

[[record]]
molecule = "CC(=O)N(O)CCCCCNC(=O)CCC(=O)N(O)CCCCCNC(=O)CCC(=O)N(O)CCCCCNC(=O)C12CC3CC(CC(Cl)(C3)C1)C2"
answer_label = "inactive"


Each molecule tested received a call. Report the one for "CC(=O)N(O)CCCCCNC(=O)CCC(=O)N(O)CCCCCNC(=O)CCC(=O)N(O)CCCCCNC(=O)CC12CC3CC(C)(CC(C)(C3)C1)C2" .
active

Each molecule tested received a call. Report the one for "CC(=O)N(O)CCCCCNC(=O)CCC(=O)N(O)CCCCCNC(=O)CCC(=O)N(O)CCCCCNC(=O)CC12CC3CC(CC(Br)(C3)C1)C2" .
inactive

Each molecule tested received a call. Report the one for "CC(=O)N(O)CCCCCNC(=O)CCC(=O)N(O)CCCCCNC(=O)CCC(=O)N(O)CCCCCNC(=O)C12CC3CC(CC1C3)C2" .
active

Each molecule tested received a call. Report the one for CC(=O)N(O)CCCCCNC(=O)CCC(=O)N(O)CCCCCNC(=O)CCC(=O)N(O)CCCCCNC(=O)[C@H]1C[C@H]2CC[C@H]1C2 (relative stereo) .
active

Each molecule tested received a call. Report the one for "CC(=O)N(O)CCCCCNC(=O)CCC(=O)N(O)CCCCCNC(=O)CCC(=O)N(O)CCCCCNC(=O)CC12CC3CC(CC(O)(C3)C1)C2" .
active

Each molecule tested received a call. Report the one for CC(=O)N(O)CCCCCNC(=O)CCC(=O)N(O)CCCCCNC(=O)CCC(=O)N(O)CCCCCNC(=O)C1CC2CCCC(C2)C1 (centres undefined) .
inactive

Each molecule tested received a call. Report the one for "CC(=O)N(O)CCCCCNC(=O)CCC(=O)N(O)CCCCCNC(=O)CCC(=O)N(O)CCCCCNC(=O)C12CC3CC(CC(C3)C1)C2" .
active
